Reported MIC values are given for each entry in this list.
# Test system: Mycolicibacterium fortuitum
# experimental protocol: Antibacterial activity against Mycobacterium fortuitum after 72 hrs
# Type: functional

>  <molecule>
CC1(C)CCC[C@]2(C)[C@H]3CC[C@](C)(C4CO4)C=C3[C@H](O)C[C@@H]12 (relative stereo)

>  <MIC>
16 µg/mL

$$$$
>  <molecule>
CC[C@@H](CO)NCCN[C@@H](CC)CO [ETHAMBUTOL]

>  <MIC>
4 µg/mL

$$$$
>  <molecule>
CC1(C)CCC[C@]2(C)[C@H]3CC[C@](C)(C4CO4)C=C3C(=O)C[C@@H]12 (relative stereo)

>  <MIC>
128 µg/mL

$$$$
>  <molecule>
C=C[C@@]1(C)C[C@H](O)[C@@H]2[C@@]3(C)[C@H](O)CCC(C)(C)[C@@H]3CC[C@@]2(C)O1

>  <MIC>
128 µg/mL

$$$$
